Values from ChEMBL document CHEMBL1154977

- System: Ishikawa
- Assay notes: Growth inhibition of human Ishikawa cells after 48 hrs by sulforhodamine B assay
- Assay type: functional
Measured parameter: GI50 (µM)
Give the number; µM is assumed, so skip it.

INSERT INTO assay_data (compound, observed) VALUES
  ('ClC(Cl)(Cl)C1c2cc3ccccc3nc2C=C(c2ccccc2)N1CCc1ccccc1 (stereo not drawn)', 25),
  ('CCCCN1C(c2ccccc2)=Cc2nc3ccccc3cc2C1C(Cl)(Cl)Cl (stereo not drawn)', 3.1),
  ('C=CCN1C(c2ccccc2)=Cc2nc3ccccc3cc2C1C(Cl)(Cl)Cl (stereo not drawn)', 31);

For the compound ClC(Cl)(Cl)C1c2cc3ccccc3nc2C=C(c2ccccc2)N1CCN1CCOCC1 (stereo not drawn) , the measured GI50 on Ishikawa was 17

For the compound ClC(Cl)(Cl)C1c2cc3ccccc3nc2C=C(c2ccccc2)N1Cc1ccccc1 (stereo not drawn) , the measured GI50 on Ishikawa was 15

For the compound CCOc1ccc(CCN2C(c3ccccc3)=Cc3nc4ccccc4cc3C2C(Cl)(Cl)Cl)cc1OCC (stereo not drawn) , the measured GI50 on Ishikawa was 4.1
